Test system: Plasmodium falciparum
Test: GSK_TCMDC: Inhibition of Plasmodium falciparum 3D7 in whole red blood cells, using parasite LDH activity as an index of growth. Test compounds present at 2uM
Assay type: functional
Property: Inhibition; scope: individual molecules
readout: Inhibition

- Cc1cc(OCCCN2CCC(NS(=O)(=O)c3cc(Br)c(Cl)s3)CC2)c2ccccc2n1: 95%
- N#CCCN1CCN(Cc2cccc(-c3ccc(-c4nc5ccccc5[nH]4)s3)c2)CC1.O=C(O)C(F)(F)F: 96%
- O=C(/C=C/c1ccc(Cl)c(Cl)c1)NCCCCCN1CCN(C(=O)Nc2ccc(Cl)c(C(F)(F)F)c2)CC1: 100%
- COc1ccc(NC(=O)NC2CCN(CCCCCNC(=O)/C=C/c3ccc(Cl)c(Cl)c3)CC2)cc1: 96%
- Cc1cc(=NN=CC=Cc2ccccc2)c2ccc(F)cc2[nH]1: 100%
- Cn1cnc2c(Nc3ccncc3)nc(-c3ccc(OC(F)(F)F)cc3)nc21.O=C(O)C(F)(F)F: 100%
- Cc1ccc2c(Cl)c(C(=O)N3CCCc4ccccc43)sc2c1: 99%
- COc1cc(C=C(C2=NC(=O)CS2)c2nc3cccnc3n2C)ccc1O: 89%
- CCOc1ccc(/C=C/C(=O)Nc2cccc3c2CCN(C)C3)cc1.Cl: 92%
- CCOc1ccccc1CNc1nccc(NCc2ccc(Cl)cc2Cl)n1: 83%

---

Here the recorded Inhibition is given for each entry.
Test system: Plasmodium falciparum
Assay: GSK_TCMDC: Inhibition of Plasmodium falciparum 3D7 in whole red blood cells, using parasite LDH activity as an index of growth. Test compounds present at 2uM
Format: functional
readout: Inhibition

• COc1ccc2ncc(F)c([C@@H](O)CN3CCC(NCc4cc5c(cn4)OCCO5)CC3)c2c1.Cl = 100%
• Cc1cc(Nc2ccc(C)c(C)c2)n2nc(C)nc2n1 = 95%
• O=C(NCCN1CCCCC1)c1ccc(Nc2nccc(Nc3ccc(Oc4ccccc4)cc3)n2)cc1 = 100%
• COc1ccc2ccccc2c1CON1C(=N)N=C(N)NC1(C)C.Cl = 94%
• CCCc1cc(Cc2cnc(N)nc2N)ccc1OCCCCCC(=O)O.Cl = 97%

---

Tested on: Plasmodium falciparum
Experiment: GSK_TCMDC: Inhibition of Plasmodium falciparum Dd2 in whole red blood cells, using parasite LDH activity as an index of growth. Test compounds present at 2uM
Assay type: functional
readout: Inhibition (%)

- CCc1c[nH]c2c(N3CCCCS3(=O)=O)cc(C(=O)N[C@@H](Cc3ccccc3)[C@H](O)CNCc3cccc(OC)c3)cc12.O=CO: 91
- CCCCOc1ccc(CNCCCCCCNCc2ccc(OCCCC)c3ccccc23)c2ccccc12.CS(=O)(=O)O: 49
- O=C(NCc1ccc(F)cc1)Nc1ccc(-c2cccc(-c3nc4cc(F)ccc4[nH]3)c2)cc1: 99
- CCc1ccnc2c(N3CCCC3=O)cc(C(=O)N[C@@H](Cc3ccccc3)[C@H](O)CNC3CCOCC3)cc12.O=CO: 98
- CC(C)Cc1ccc(N2CCN(CCCCNC(=O)c3ccc(NC(=O)c4cc(C(F)(F)F)cc(C(F)(F)F)c4)cc3)CC2)cc1: 100
- CCOC(=O)c1ccc(N2CCN(c3cc(Cl)ccc3C)CC2)c(NC(=O)Nc2ccc(Cl)c(Cl)c2)c1: 99
- Cc1cnc(C(=O)Nc2cccc(-c3ccc(-c4nc5cc(F)ccc5[nH]4)cc3)c2)cn1: 13
- COc1ccc2nc(C)cc(N/N=C/c3ccc([N+](=O)[O-])cc3)c2c1: 70
